# target or system: hNPY2R (Homo sapiens)
# Construct: expressed in transfected cells; host or cells: HEK-293 cells carrying a CRE-luciferase reporter gene
# Sequence (P49146 whole entry): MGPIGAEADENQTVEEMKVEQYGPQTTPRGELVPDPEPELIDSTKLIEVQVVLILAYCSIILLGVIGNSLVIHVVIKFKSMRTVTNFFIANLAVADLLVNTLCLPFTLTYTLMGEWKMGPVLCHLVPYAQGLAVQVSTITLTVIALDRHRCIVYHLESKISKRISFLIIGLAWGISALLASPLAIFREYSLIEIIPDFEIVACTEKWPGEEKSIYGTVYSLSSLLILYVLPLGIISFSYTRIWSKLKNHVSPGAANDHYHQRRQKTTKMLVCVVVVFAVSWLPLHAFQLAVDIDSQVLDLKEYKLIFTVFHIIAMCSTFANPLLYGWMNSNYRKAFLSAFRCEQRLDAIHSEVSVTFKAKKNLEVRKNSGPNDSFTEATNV
# measurement description: hNPY2R CreLuc reporter gene assay in 0.5% and 100% plasma
# Type: cell-based
# reported conditions: CreLuc reporter gene assay, 100% human plasma; read-out: hNPY2R 100% hP
# Description: Example 1: hGLPR/hGIPR/hNPY2R CreLuc Assay in 0.5% and 100% Plasma CHO and HEK-293 recombinant cell lines express a luciferase reporter gene under control of the cAMP responsive element (CRE). […] Following incubation, assay plates are equilibrated to room temperature, followed by addition of 25 μl of Bright-GIo™ Luciferase reagent, incubation at room temperature for 10 minutes and analysis of luminescence (Envision Reader). […]
Starred links: 1 amine or outer side, 2 acyl side, 3 side chain; linkers in the order of their positions; H or OH if unused. Non-standard residues stand in square brackets, D forms with d. Groups on a side chain read outwards from the residue. *: point of attachment. C20 diacid = O=C(O)CCCCCCCCCCCCCCCCCCC(=O)*; C18 diacid = O=C(O)CCCCCCCCCCCCCCCCC(=O)*; γGlu = O=C(O)[C@H](CCC(=O)[*:2])N[*:1]; εLys = N[C@@H](CCCCN[*:1])C(=O)[*:2]; AEEA = NCCOCCOCC(=O)O; Aib = CC(C)(N)C(=O)O
reported metric: EC50 (nM)
The response must be a number in nM with no trailing unit.

Illustrative cases are given below, each with its answer.
EC50 lookup needed for H-Y[Aib]EGTFTSDYSI[Aib]LEKQAQ[Aib]AFVQWLIK([εLys-γGlu-γGlu-γGlu-γGlu-γGlu-γGlu-C20 diacid])GGQRSYASLRHYYNWLTRQRY-NH2 [Compound 3] , thanks.
23

Any idea what its EC50 is? The substance is H-Y[Aib]EGTFTSDYSI[Aib]LEKQAQ[Aib]AFVQWLIK([εLys-γGlu-γGlu-γGlu-γGlu-γGlu-C18 diacid])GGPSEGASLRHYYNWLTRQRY-NH2 [Compound 267]
27.6

Below: the item to evaluate.
Which EC50 value belongs to H-Y[Aib]EGTFTSDYSI[Aib]LEKQAE[Aib]AFVEWLIK([AEEA-AEEA-γGlu-γGlu-γGlu-γGlu-C18 diacid])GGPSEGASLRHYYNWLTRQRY-NH2 [Compound 251] ?
48.7

Recorded values, source patent US20240247080A1.
